Assay: NCI Yeast Anticancer Drug Screen. Data for the bub3 strain (AID 167)
Details: S. cerevisiae bub3 mutant strain, at 5.0 µM (retest, dose inferred, filed as 0.5), stronger effect = higher value
Experimental: Growth inhibition of yeast strains with defined genetic alterations is measured as a screen for potential anti-cancer activity. Selected strains with alterations in DNA damage repair or cell cycle control were exposed to compounds and growth inhibition was measured relative to vehicle treated controls. The strain used in this assay is bub3
The panel holds about 79,000 compounds, 15% with a hit somewhere; the sample as a whole holds those more often.
growth inhibition below 10% gives Condition not met; growth inhibition at or above it gives Condition met.

INSERT INTO measurements (compound, label_class) VALUES
  ('COc1ccc([As](O[As](c2ccc(OC)cc2)c2ccc(OC)cc2)c2ccc(OC)cc2)cc1', 'Condition met'),
  ('CCCCCCCC(=O)[O][Hg][c]1ccccc1', 'Condition met'),
  ('O=[N+]([O-])O.[In]', 'Condition met'),
  ('CCCCCCCCc1ccc(OCCN(CCCl)CCCl)cc1', 'Condition not met'),
  ('CCCCCCCC[N+]12CN3CN(CN(C3)C1)C2', 'Condition not met'),
  ('CC(=O)c1ccc([As]=O)cc1 (configuration not stated)', 'Condition not met'),
  ('C[N+](C)(C)CC1CCCc2ccccc2C1=O (configuration not stated)', 'Condition met'),
  ('COc1ccccc1C(Cc1ccc(N2C(N)=NC(N)=NC2(C)C)cc1)C(=O)Nc1ccc(S(=O)(=O)F)cc1 (configuration not stated)', 'Condition not met'),
  ('O=C([CH-]C(=O)c1ccccc1)c1ccccc1.O=C([CH-]C(=O)c1ccccc1)c1ccccc1.[CH2-]CCC.[CH2-]CCC.[Sn+4]', 'Condition met'),
  ('COC(=O)c1ccc([As]=O)cc1N (configuration not stated)', 'Condition not met'),
  ('O=[N+]([O-])/C=C\c1ccc2c(c1)OCO2', 'Condition met');

----------
Measured growth inhibition by item
Experiment: NCI Yeast Anticancer Drug Screen. Data for the rad50 strain (AID 155);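 note: 0% = growth of vehicle-only cultures of the same strain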
Settings: S. cerevisiae rad50 strain growth inhibition; at 50.0 µM; stronger effect = higher value
The panel holds about 79,000 compounds, 15% with a hit somewhere; the sample as a whole holds those more often.
measure: growth inhibition (%)

INSERT INTO results (molecule, quantitative_readout) VALUES
  ('N.N.N.N.N.O=C([O-])CCl.[Co+3].[O-][Cl+3]([O-])([O-])[O-]', -21.4),
  ('CC12CC3CC(C1)CC(N=[N+]=[N-])(C3)C2', -16.4),
  ('O=C(Nc1ccccc1Cl)OCC(Cl)(Cl)Cl', -15.3),
  ('COC(=O)C1=NNC2(c3ccccc3Sc3ccccc32)C1C(=O)OC (centres undefined)', -8.95),
  ('C/C=C1/C(=O)O[C@]23C=C[C@@H]4C(C(=O)OC)=CO[C@H](O[C@@H]12)[C@@H]43', 91.9),
  ('CN1C2CCC1CC(=O)C2', -14.6),
  ('CC1=NN(c2cccc(S(=O)(=O)O)c2)C(=O)C1N=Nc1cc(Cl)cc(S(=O)(=O)O)c1O.O.[Cr] (centres undefined)', -19.4),
  ('Clc1cc[c]([Sn]([Cl])([c]2ccc(Cl)cc2)[c]2ccc(Cl)cc2)cc1', 98.5),
  ('CC(C)CCC[C@@H](C)[C@H]1CC[C@H]2[C@@H]3CC[C@H]4C[C@H]5N[C@H]5C[C@]4(C)[C@H]3CC[C@]12C', 10.6);

----------
Assay: NCI Yeast Anticancer Drug Screen. Data for the rad50 strain (AID 155);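 note: 0% = growth of vehicle-only cultures of the same strain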
Conditions: S. cerevisiae rad50 strain growth inhibition; at 50.0 µM; stronger effect = higher value
Description: Growth inhibition of yeast strains with defined genetic alterations is measured as a screen for potential anti-cancer activity. Selected strains with alterations in DNA damage repair or cell cycle control were exposed to compounds and growth inhibition was measured relative to vehicle treated controls. The strain used in this assay is rad50
The panel holds about 79,000 compounds, 15% with a hit somewhere; the sample as a whole holds those more often. The source made the active and inactive calls. Rule as the data show it: active = growth inhibition above about 70%; inactive = the rest.
Reported growth inhibition values follow for various molecules
measure: growth inhibition

INSERT INTO results (molecule, measure, result) VALUES
  ('CCOC(=O)CC(=Nc1cc(C)on1)N(CC)CC', 'growth inhibition', '0.95% (inactive)'),
  ('CCN(CC)C(=O)N1CN(c2ccccc2)C2(CCN(CCCSc3ccc(F)cc3)CC2)C1=O', 'growth inhibition', '13.5% (inactive)'),
  ('C=C1CC2CC[C@@]34CC5O[C@@H]6C(O[C@H]7CC[C@H](CC(=O)OC8C(C)C9OC%10C[C@]%11(C[C@@H]%12O[C@]%13(CC(C)[C@@H]%14O[C@H](C(O)CC(O)CO)C[C@@H]%14O%13)CC(C)[C@@H]%12O%11)OC%10CC9O[C@H]8C[C@H]8OC(CC[C@@H]1O2)C[C@@H](C)C8=C)OC7[C@@H]6O3)[C@H]5O4 (some centres undefined)', 'growth inhibition', '87.3% (active)'),
  ('CN1CC=C(c2cccn2C)CC1', 'growth inhibition', '-24.2% (inactive)'),
  ('CC(Cc1ccccc1)NC(=O)/C=C/C(=O)O (centres undefined)', 'growth inhibition', '5.9% (inactive)'),
  ('CCOC(=O)C(Cc1ccc(N(CCCl)CCCl)cc1)NC(=O)C(N)CO (centres undefined)', 'growth inhibition', '-4.05% (inactive)'),
  ('O=c1oc2cc(O)ccc2c(O)c1C(c1ccccn1)c1c(O)c2ccc(O)cc2oc1=O', 'growth inhibition', '12.6% (inactive)'),
  ('COc1cc(CCN(C)C)c([N+](=O)[O-])cc1OC', 'growth inhibition', '7.9% (inactive)'),
  ('O=[N+]([O-])c1cc[n+]([O-])c2ccccc12', 'growth inhibition', '99.2% (active)'),
  ('CC(C)[C@]12O[C@H]1[C@@H]1O[C@]13[C@]1(O[C@H]1C[C@H]1C4=C(CC[C@@]13C)C(=O)OC4)[C@@H]2O', 'growth inhibition', '4.6% (inactive)'),
  ('C/C(=C\c1ccccc1)[N+](=O)[O-]', 'growth inhibition', '98.7% (active)'),
  ('OC1CCCC2CCCNC12 (centres undefined)', 'growth inhibition', '86.4% (active)'),
  ('O=C([O-])CN(CCN(CC(=O)[O-])CC(=O)O)CC(=O)O.[Fe+5].[Na+]', 'growth inhibition', '-12.6% (inactive)'),
  ('CN(C)P(=O)(N(C)C)N(C)C', 'growth inhibition', '23.2% (inactive)');

----------
Test: NCI Yeast Anticancer Drug Screen. Data for the sgs1 mgt1 strain (AID 161);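 note: 0% = growth of cultures given vehicle only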
Conditions: S. cerevisiae sgs1 mgt1 strain, at 50.0 µM, stronger effect = higher value
Compounds without any hit were thinned out: in the full panel of roughly 79,000, 15% have a hit.
measure: growth inhibition (%)

INSERT INTO results (molecule, measure, quantitative_readout) VALUES
  ('CCOC(=O)/C(=C\c1ccc(C(F)(F)F)cc1)[Se]c1ccccc1', 'growth inhibition', 9.35),
  ('C=CC(=O)OCCN(C)C', 'growth inhibition', -4.4),
  ('COP(=O)(OC)/C(=C/c1c[nH]c2ccccc12)C(=O)O', 'growth inhibition', -55.9),
  ('CN1CCN(Cc2ccccc2)CC1CC#N (stereo unspecified)', 'growth inhibition', -24.1),
  ('CC1CCC2[S][Sn]3([NH]C2C1)[NH]C1CC(C)CCC1[S]3 (stereo unspecified)', 'growth inhibition', 99.1),
  ('CC1CC2C(CCC3(C)C2CC2(CC2)C3(C)O)C2(C)CCC(O)CC12O (stereo unspecified)', 'growth inhibition', 19.9),
  ('COc1ccc([N+](=O)[O-])cc1N=Cc1ccc(N(CCCl)CCCl)cc1C', 'growth inhibition', 52.2),
  ('CCOP(=O)(OCC)C(=C(Cl)Cl)C(Cl)Cl', 'growth inhibition', 8.75),
  ('C/C=C1\CN2CC[C@H]1C[C@H]2[C@H](O)c1ccnc2ccc(NCCO)cc12', 'growth inhibition', 5.95),
  ('OCC1N2CCC(CC2)C1(O)O (stereo unspecified)', 'growth inhibition', 0.1),
  ('C[n+]1cccc(C2CCC[N+]2(C)C)c1 (stereo unspecified)', 'growth inhibition', 8.15),
  ('CCOP(=O)(NC(C)C)OCC', 'growth inhibition', -2.8),
  ('S=c1sc(-c2ccccc2)c[se]1', 'growth inhibition', 46.4),
  ('COC1=CC(=O)OC(CCc2ccccc2)C1 (stereo unspecified)', 'growth inhibition', -1.9),
  ('CCCCCc1cc(/C=C2/N=C(c3ccc[nH]3)C=C2OC)[nH]c1C', 'growth inhibition', 86.8),
  ('OC1C2[C@@H](O)CCCN2C[C@@H](O)[C@H]1O (stereo partly specified)', 'growth inhibition', -34.5),
  ('C[C@]12CCC(O)CC1=CC[C@@H]1[C@@H]2CC[C@]2(C)C(=O)[C@H](n3ccnc3)C[C@@H]12 (stereo partly specified)', 'growth inhibition', 52.2),
  ('COc1ccc(CN2CCCN(Cc3ccc(OC)cc3OC)C2c2ccc(N(CCCl)CCCl)cc2)c(OC)c1', 'growth inhibition', 60.8),
  ('CP1(=O)CCC23CCCCC21O3 (stereo unspecified)', 'growth inhibition', -2.3),
  ('c1ccc(N=c2snc(-c3ccccc3)s2)cc1', 'growth inhibition', 73.5),
  ('[Cl][Hg][c]1ccccc1N=Nc1ccccc1I', 'growth inhibition', 99.2);
